MEASURED ON: MAP4K1 (HPK1) (Homo sapiens (Human), UniProt Q92918)
Sequence (Q92918 whole entry): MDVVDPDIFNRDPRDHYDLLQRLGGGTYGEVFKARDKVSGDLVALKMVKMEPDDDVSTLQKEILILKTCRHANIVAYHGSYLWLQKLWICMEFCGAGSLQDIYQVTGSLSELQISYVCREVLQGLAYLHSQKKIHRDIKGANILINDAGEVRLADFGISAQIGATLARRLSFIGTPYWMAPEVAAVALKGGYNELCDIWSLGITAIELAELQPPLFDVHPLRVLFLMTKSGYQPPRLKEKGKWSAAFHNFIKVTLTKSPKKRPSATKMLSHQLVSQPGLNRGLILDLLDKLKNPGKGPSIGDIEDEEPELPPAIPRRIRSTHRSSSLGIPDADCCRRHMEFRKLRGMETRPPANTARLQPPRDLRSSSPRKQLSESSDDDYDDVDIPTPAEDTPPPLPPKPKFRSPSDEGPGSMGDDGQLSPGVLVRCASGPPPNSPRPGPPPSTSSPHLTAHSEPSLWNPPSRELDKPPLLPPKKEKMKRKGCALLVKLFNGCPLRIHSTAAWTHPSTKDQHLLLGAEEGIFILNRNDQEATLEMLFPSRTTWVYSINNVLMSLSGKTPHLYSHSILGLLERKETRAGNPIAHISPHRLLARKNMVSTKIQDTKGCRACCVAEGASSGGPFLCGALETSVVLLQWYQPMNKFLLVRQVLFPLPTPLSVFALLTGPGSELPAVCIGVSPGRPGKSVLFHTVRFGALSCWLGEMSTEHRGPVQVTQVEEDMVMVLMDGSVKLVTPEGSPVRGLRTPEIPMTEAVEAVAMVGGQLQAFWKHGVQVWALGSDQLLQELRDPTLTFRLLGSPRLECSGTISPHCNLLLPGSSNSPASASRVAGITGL
TEST: MAP4K1 (HPK1) biochemical enzymatic activity, electrophoretic mobility shift (EZReader 2), ATP at APPKM (26 μM)
CONDITION SET: numeric value
Definition: the class of an entry is the range in lower range = under 0.3 nM, middle range = from 0.3 nM up to 0.9 nM, upper range = 0.9 nM and over that contains its IC50.

Hey, which category is CC[C@]1(C)OC(=O)c2ccc(Nc3cc4c(C(C)(C)N)cnc(OC5CC5)c4cn3)nc21 [Compound 113] in, do you know?
middle range

Where would CCOc1ncc(C(C)(C)N)c2cc(Nc3ccc4c(n3)C[C@H](C)OC4=O)ncc12 (single isomer, unassigned) [Compound 41] land among the classes by reported IC50?
middle range

Assign a bin to COc1ncc(C(C)(C)N)c2cc(Nc3ccc4c(n3)CCOC4=O)ncc12 [Compound 12]
middle range

# bin lookup: classify COc1ncc(C(C)(C)N)c2cc(Nc3ccc4c(n3)C[C@H](C)OC4=O)ncc12 (single isomer, unassigned) [Compound 25] by its IC50
lower range

Please let me know in which category the item CC[C@@](C)(N)c1cnc(OC2CC2)c2cnc(Nc3ccc4c(n3)C(C)(C)COC4=O)cc12 [Compound 136] belongs.
middle range

In plain terms, what class is CCOc1ncc(C(C)(C)N)c2cc(Nc3ccc4c(n3)[C@H](C)[C@@H](C)OC4=O)ncc12 [Compound 58] ?
middle range

# bin lookup: classify COc1ncc([C@](C)(N)C2CC2)c2cc(Nc3ccc4c(n3)[C@@H](C)C(C)(C)OC4=O)ncc12 [Compound 101] by its IC50
lower range

Determine which band this compound sits in: CCCOc1ncc([C@@](C)(N)CC)c2cc(Nc3ccc4c(n3)[C@@H](C)[C@H](C)OC4=O)ncc12 [Compound 145]
upper range

Kindly state the category for this compound: COc1ncc(C2CCCN2)c2cc(Nc3ccc4c(n3)CC(C)(C)OC4=O)ncc12 (stereo not drawn) [Compound 50]
upper range

Bin this entry: COc1cnc(C(C)(C)N)c2cc(Nc3ccc4c(n3)CC(C)(C)OC4=O)ncc12 [Compound 46]
upper range

Lab note: which band did CCOc1ncc(C(C)(C)N)c2cc(Nc3ccnc(C(C)(C)F)n3)ncc12 [Compound 16] land in?
upper range

Dear colleague, I would appreciate it if you could identify the bin for C[C@@H]1c2nc(Nc3cc4c([C@](C)(N)C5CC5)ncc(OC5CC5)c4cn3)ccc2C(=O)OC1(C)C (single isomer, unassigned) [Compound 76] and reply at your convenience.
lower range

Class for CCCOc1ncc([C@](C)(N)CC)c2cc(Nc3ccc4c(n3)CC(C)(C)OC4=O)ncc12 [Compound 143] ?
middle range

Hi there! Could you help me figure out the category for CC[C@@](C)(N)c1cnc(OCC(F)(F)F)c2cnc(Nc3ccc4c(n3)C(C)(C)OC4=O)cc12 (single isomer, unassigned) [Compound 175] please?
upper range

# classify by IC50 band: COc1ncc(C(C)(C)N)c2cc(Nc3ccc4c(n3)[C@@H](C)COC4=O)ncc12 (single isomer, unassigned) [Compound 23]
lower range

---

MEASURED ON: MAP4K1 (HPK1) (Homo sapiens (Human), UniProt Q92918)
TEST: MAP4K1 (HPK1) biochemical enzymatic activity, electrophoretic mobility shift (EZReader 2), ATP at APPKM (26 μM)
CONDITION SET: class designation
I'd appreciate it if you could supply IC50 values for the items below.

Looking up C[C@H]1OC(=O)c2ccc(Nc3cc4c([C@](C)(N)C5CC5)cnc(OC5CC5)c4cn3)nc2C12CC2 (single isomer, unassigned) [Compound 167] , I see its IC50 listed as < 0.3 nM

compound C[C@@H]1OC(=O)c2ccc(Nc3cc4c(C(C)(C)N)cnc(OC5(C)CC5)c4cn3)nc2[C@H]1C [Compound 82] , IC50 observed: < 0.3 nM

Looking up CC1(C)Cc2nc(Nc3cc4c(C(C)(C)N)cnc(OCC(F)F)c4cn3)ccc2C(=O)O1 [Compound 73] , I see its IC50 listed as < 0.3 nM

Lab note: COc1ncc(C(C)(C)N)c2cc(Nc3ccc4c(n3)CCOC4=O)ncc12 [Compound 12] gave IC50 of 0.31 to 1 nM

IC50 reported for this compound CC[C@@](C)(N)c1cnc(OC2CC2)c2cnc(Nc3ccc4c(n3)CC(C)(C)OC4=O)cc12 (single isomer, unassigned) [Compound 132] : < 0.3 nM

Briefly, IC50 measured for C[C@H]1OC(=O)c2ccc(Nc3cc4c(C(C)(C)N)cnc(OC5CC5)c4cn3)nc2C12CC2 [Compound 119] : < 0.3 nM

response.value for CC[C@@](C)(N)c1cnc(OC2CC2)c2cnc(Nc3ccc4c(n3)[C@@H](C)C(C)(C)OC4=O)cc12 [Compound 156] (field: IC50) = < 0.3 nM

Entry CC[C@H](C)c1nc(Nc2cc3c(C(C)(C)N)cnc(OC)c3cn2)ccc1C#N [Compound 19] , IC50 reported as < 0.3 nM

Entry COc1ncc(C(C)(C)N)c2cc(Nc3cnc(C#N)c(N4CCC[C@@H]4C)n3)ncc12 [Compound 49] ; IC50 = 0.31 to 1 nM

According to the records, this compound C[C@@H]1c2nc(Nc3cc4c([C@@](C)(N)C5CC5)cnc(OC5(C)CC5)c4cn3)ccc2C(=O)OC1(C)C [Compound 90] displays IC50 of 1.1 to 10 nM

IC50 recorded for this compound, CC[C@@H](N)c1cnc(C)c2cnc(Nc3ccc4c(n3)[C@@H](C)C(C)(C)OC4=O)cc12 [Compound 210] , is < 0.3 nM

Value of measured IC50 for the entry C[C@@H]1OC(=O)c2ccc(Nc3cc4c(C(C)(C)N)cnc(OC5COC5)c4cn3)nc2[C@H]1C [Compound 141] : 0.31 to 1 nM

Given item COc1ncc(C(C)(C)N)c2cc(Nc3ccnc(N4CCC[C@@H]4C)n3)ncc12 [Compound 27] , the value recorded as its IC50 is < 0.3 nM

Measured IC50, CC[C@@H](N)c1cnc(OC)c2cnc(Nc3ccc4c(n3)[C@@H](C)[C@H](C)OC4=O)cc12 [Compound 203] : 0.31 to 1 nM

Measured IC50 of CC[C@@](C)(N)c1cnc(OC2(C)CC2)c2cnc(Nc3ccc4c(n3)[C@@H](C)C(C)(C)OC4=O)cc12 [Compound 86] : 1.1 to 10 nM
